// reported EC50 per item
- target-or-test-system: UniProt O14842
- assay-overview: FDSS-based intracellular calcium assay (Human GPR40 in vitro assay)
- Type: cell-based
- Design: 3xFLAG; expressed in transfected cells
- condition-description: intracellular Ca2+ response, cells expressing GPR40; read-out: hGPR40 EC50
# value in µM; strip the unit string

Some compounds with recorded EC50:
Form field: EC50 recorded for C[C@@H]1C(C(F)(F)F)=NN(c2ccc(OC3CCN(C(=O)OCc4ccccc4)CC3)cc2)[C@H]1CC(=O)O [Example 14] with UniProt O14842 (enter value)
4.27

Similarly, CCOc1ccc(F)c(N2CCC(Oc3ccc(N4N=C(C(F)(F)F)[C@@H](C)[C@@H]4CC(=O)O)cc3)C(OC)C2)c1 (single isomer, unassigned) [Example 31 (Isomer 2)] ?
0.91

Similarly, C[C@@H]1C(C(F)(F)F)=NN(c2ccc(OCC3CN(S(=O)(=O)C4CCCCC4)C3)cc2)[C@H]1CC(=O)O [Example B31] ?
3.77

Similarly, COc1ccnc(N2CCC(Oc3ccc(N4N=C(C(F)(F)F)[C@@H](C)[C@@H]4CC(=O)O)cc3)CC2)n1 [Example B28] ?
5.27

Similarly, COc1cc(N2CC[C@@H](Oc3ccc(N4N=C(C(F)(F)F)[C@@H](C)[C@@H]4CC(=O)O)cc3)[C@H](CO)C2)c(Cl)cn1 [Example B1] ?
2.48

More entries:
Form field: EC50 recorded for C[C@@H]1C(C(F)(F)F)=NN(c2ccc(OC3CCN(c4cc5c(cc4Cl)CCO5)CC3)cc2)[C@H]1CC(=O)O [Example 4] with UniProt O14842 (enter value)
1.04

Similarly, CCOc1ccc(F)c(N2CCC(Cc3ccc(N4N=C(C(F)(F)F)[C@@H](C)[C@@H]4CC(=O)O)cc3)C(C)C2)c1 (single isomer, unassigned) [Example 3 (Isomer 1)] ?
3.22

Similarly, COCC1CN(c2cc(OC)ncc2Cl)CCC1Oc1ccc(N2N=C(C(F)(F)F)[C@@H](C)[C@@H]2CC(=O)O)cc1 (single isomer, unassigned) [Example B3, Isomer 3] ?
2

Similarly, C[C@@H]1C(C(F)(F)F)=NN(c2ccc(OCC3CN(C(=O)OC(C)(C)C)C3)cc2)[C@H]1CC(=O)O [Example B30] ?
2.77

Similarly, C[C@@H]1C(C(F)(F)F)=NN(c2ccc(OC3CCN(c4cc(-c5ncco5)ccc4F)CC3)cc2)[C@H]1CC(=O)O [Example B17] ?
2.49

Similarly, C[C@@H]1C(C(F)(F)F)=NN(c2ccc(OC3CCN(S(=O)(=O)c4ccccc4C#N)CC3)cc2)[C@H]1CC(=O)O [Example B21] ?
7.95

Similarly, C[C@@H]1C(C(F)(F)F)=NN(c2ccc(OC3CCN(c4ncc(Cl)cn4)CC3)cc2)[C@H]1CC(=O)O [Example 7] ?
4.48

Similarly, CCOc1cc(F)c(F)c(N2CCC(Oc3ccc(N4N=C(c5ccc(F)c(F)c5)[C@@H](C)[C@@H]4CC(=O)O)cc3)CC2)c1 [Example 97] ?
3.14

* * *

// reported EC50 per item
- target-or-test-system: human GPR40 (Homo sapiens)
- assay-overview: FDSS-based intracellular calcium assay (Human GPR40 in vitro assay)
- Assay type: cell-based
- Design: 3xFLAG; expressed in transfected cells
- condition-description: intracellular Ca2+ response, cells expressing GPR40; read-out: hGPR40 EC50
- Protocol: FDSS-based Intracellular Calcium Assay Compounds are dissolved in DMSO and diluted to desired concentrations with assay buffer and added to the cells as 3× solution (20 μL per well). Run fluorescence/luminescence reader FDSS (Hamamatsu) to read intracellular Ca^2+ response.
# value in nM; strip the unit string

Some compounds with recorded EC50:
What value of EC50 has been recorded for this entry: CCOc1ccc(F)c(N2CCC(Oc3ccc(N4N=C(C(F)(F)F)[C@@H](C)[C@@H]4CC(=O)O)cc3)C(Cc3ccccc3)C2)c1 (single isomer, unassigned) [Example 28 (Isomer 2)]
1320

Similarly, COc1cc(N2CCC(Oc3ccc(N4N=C(C#N)C(C)C4CC(=O)O)cc3)C(C)C2)c(Cl)cn1 (single isomer, unassigned) [Example B6, Isomer 1] ?
303

Next compound, EC50 to be filled in.
What value of EC50 has been recorded for this entry: C[C@@H]1C(C(F)(F)F)=NN(c2ccc(OCC3CN(c4ccc5c(c4)OCO5)C3)cc2)[C@H]1CC(=O)O
4760

* * *

- target-or-test-system: human GPR40 (Homo sapiens, UniProt O14842)
- Sequence (O14842 whole entry): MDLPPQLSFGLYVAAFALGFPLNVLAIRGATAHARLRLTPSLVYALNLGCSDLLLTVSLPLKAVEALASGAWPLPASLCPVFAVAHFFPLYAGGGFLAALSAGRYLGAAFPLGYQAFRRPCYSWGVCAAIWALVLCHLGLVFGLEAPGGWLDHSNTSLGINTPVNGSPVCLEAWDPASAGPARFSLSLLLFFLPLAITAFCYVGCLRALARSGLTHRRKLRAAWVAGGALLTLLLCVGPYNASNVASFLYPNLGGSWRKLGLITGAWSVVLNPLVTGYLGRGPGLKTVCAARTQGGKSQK
- assay-overview: GPR40 IP-One HTRF assay in HEK293/GPR40 inducible cell lines
- Type: cell-based
- Design: expressed in transfected cells
- condition-description: HEK293 cells, tetracycline-inducible human GPR40, IP-One HTRF; read-out: hGPR40 IP1 EC50
readout: pEC50
Scale: pEC50 equals -log10([C]), with [C] in mol/L.

What value of pEC50 has been recorded for this entry: CCOc1ccc(F)c(N2CCC(Oc3ccc(N4N=C(C(F)(F)F)[C@@H](C)[C@@H]4CC(=O)O)cc3)C(OC)C2)c1 (single isomer, unassigned) [Example 31 (Isomer 1)]
7.89

Similarly, CCOc1ccc(F)c(N2CC[C@@H](Oc3ccc(N4N=C(c5ccc(S(C)(=O)=O)cc5)[C@@H](C)[C@@H]4CC(=O)O)cc3)[C@H](C)C2)c1 [Example 98] ?
7.60

Similarly, COc1cc(N2CCC(Oc3ccc(N4N=C(C(F)(F)F)[C@@H](C)[C@@H]4CC(=O)O)cn3)C(C)C2)c(Cl)cn1 (single isomer, unassigned) [Example 103 Isomer 2] ?
7.37

More entries:
What value of pEC50 has been recorded for this entry: C[C@@H]1C(C(F)(F)F)=NN(c2ccc(OC3CCN(c4cc(O)ccc4F)CC3)cc2)[C@H]1CC(=O)O [Example 102]
6.88

Similarly, COc1cccc(N2CCC(Cc3ccc(N4N=C(c5ccc(F)cc5)[C@@H](C)[C@@H]4CC(=O)O)cc3)CC2)c1 [Example 101] ?
7.40

Similarly, COc1cc(N2CC[C@@H](Oc3ccc(N4N=C(C(F)(F)F)[C@@H](C)[C@@H]4CC(=O)O)cc3)[C@H](CC#N)C2)c(Cl)cn1 [Example B2] ?
6.44

Similarly, CCOc1ccc(F)c(N2CCC(Oc3ccc(N4N=C(C(F)(F)F)[C@@H](C)[C@@H]4CC(=O)O)cc3)C(Cc3ccccc3)C2)c1 (single isomer, unassigned) [Example 28 (Isomer 2)] ?
6.64

* * *

- target-or-test-system: UniProt O14842
- assay-overview: FDSS-based intracellular calcium assay (Human GPR40 in vitro assay)
- Type: cell-based
- Set-up: 3xFLAG; expressed in transfected cells
- condition-description: intracellular Ca2+ response, cells expressing GPR40; read-out: hGPR40 EC50
Binary label based on EC50 with cut-off 0.8 µM: below gives condition met, not below gives condition not met.

Would you kindly verify if EC50 of COc1ccc(F)c(N2C[C@H]3C[C@@H]2CC3Oc2ccc(N3N=C(C(F)(F)F)[C@@H](C)[C@@H]3CC(=O)O)cc2)c1 (stereo partly drawn) is strictly less than 0.8 µM?
condition not met

Similarly, C[C@@H]1C(C(F)(F)F)=NN(c2ccc(OC3CCN(c4cc(OC5CCCC5)cc(F)c4F)CC3)cc2)[C@H]1CC(=O)O ?
condition not met

Similarly, C[C@@H]1C(C(F)(F)F)=NN(c2ccc(OC3CCN(c4nccs4)CC3)cc2)[C@H]1CC(=O)O ?
condition not met

More entries:
Would you kindly verify if EC50 of COc1ccc(F)c(N2C3CCC2CC(Oc2ccc(N4N=C(C(F)(F)F)[C@@H](C)[C@@H]4CC(=O)O)cc2)C3)c1 (stereo partly drawn) is strictly less than 0.8 µM?
condition met

Similarly, CCOc1ccc(F)c(N2CCC(Oc3ccc(N4N=C(C#N)C(C)C4CC(=O)O)cc3)CC2)c1 (single isomer, unassigned) [Example B5 Isomer 1] ?
condition met

Similarly, COc1cncc(N2CCC(Oc3ccc(N4N=C(C(F)(F)F)[C@@H](C)[C@@H]4CC(=O)O)cc3)CC2)n1 ?
condition not met

Similarly, COc1cccc(N2CCC(Cc3ccc(N4N=C(C(F)(F)F)[C@@H](C)[C@@H]4CC(=O)O)cc3)CC2)c1 ?
condition met

Similarly, COCC1CN(c2cc(OC)ncc2Cl)CCC1Oc1ccc(N2N=C(C(F)(F)F)[C@@H](C)[C@@H]2CC(=O)O)cc1 (single isomer, unassigned) [Example B3, Isomer 2] ?
condition met

Similarly, CCOc1ccc(F)c(N2CCC(Oc3ccc(N4N=C(C#N)C(C)C4CC(=O)O)cc3)C(C)C2)c1 (single isomer, unassigned) [Example B7, Isomer 2] ?
condition not met

* * *

- target-or-test-system: human GPR40 (Homo sapiens)
- assay-overview: FDSS-based intracellular calcium assay (Human GPR40 in vitro assay)
- Assay type: cell-based
- Parameters: 3xFLAG; expressed in transfected cells
- condition-description: intracellular Ca2+ response, cells expressing GPR40; read-out: hGPR40 EC50
// reported EC50 per item
# value in nM; strip the unit string

What value of EC50 has been recorded for this entry: CCOc1ccc(F)c(N2CCC(Oc3ccc(N4N=C(C#N)C(C)C4CC(=O)O)cc3)CC2)c1 (single isomer, unassigned) [Example B5, Isomer 2]
4950

More entries:
What value of EC50 has been recorded for this entry: COc1cc(N2CC[C@@H](Oc3ccc(N4N=C(C(F)(F)F)[C@@H](C)[C@@H]4CC(=O)O)cc3)[C@H](CC#N)C2)c(Cl)cn1
586

Similarly, COc1ccc(F)c(N2C(=O)[C@H]3C[C@@H]2CC3Oc2ccc(N3N=C(C(F)(F)F)[C@@H](C)[C@@H]3CC(=O)O)cc2)c1 (stereo partly shown) ?
6410

Similarly, COc1ccc(F)c(N2C(=O)[C@@H]3C[C@H]2CC3Oc2ccc(N3N=C(C(F)(F)F)[C@@H](C)[C@@H]3CC(=O)O)cc2)c1 (stereo partly shown) ?
5040

Similarly, CC1CN(c2cc(OCC(F)(F)F)ccc2F)CCC1Oc1ccc(N2N=C(C(F)(F)F)[C@@H](C)[C@@H]2CC(=O)O)cc1 (stereo partly shown) ?
1080

Similarly, COc1cccc(N2CC(COc3ccc(N4N=C(C(F)(F)F)[C@@H](C)[C@@H]4CC(=O)O)cc3)C2)c1 ?
1090

Similarly, C[C@@H]1C(C(F)(F)F)=NN(c2ccc(CC3C4CCC3CN(C(=O)OCc3ccccc3)C4)cc2)[C@H]1CC(=O)O (stereo partly shown) ?
7380

Similarly, COc1ccc(F)c(N2CCC(Cc3ccc(N4N=C(C(F)(F)F)[C@@H](C)[C@@H]4CC(=O)O)cc3)CC2)c1 ?
266

Similarly, COc1cc(N2CCC(Oc3ccc(N4N=C(C(F)(F)F)[C@@H](C)[C@@H]4CC(=O)O)cc3)C3(CC3)C2)c(Cl)cn1 (stereo partly shown) ?
774

Similarly, C[C@@H]1C(C(F)(F)F)=NN(c2ccc(OC3CCN(c4cc5c(cc4Cl)OCCO5)CC3)cc2)[C@H]1CC(=O)O ?
325

Similarly, CCOc1ccc(F)c(N2CCC(Oc3ccc(N4N=C(C(F)(F)F)[C@@H](C)[C@@H]4CC(=O)O)cc3)C(OC)C2)c1 (single isomer, unassigned) [Example 31 (Isomer 1)] ?
473
